tested on: RXF 393 renal; experiment: NCI tumour cell line growth inhibition, 48 h
value type: TGI

>>> assay_result("CCOC(=O)c1cnc2n(c1=N)[C@H]1CCCC[C@@H]1N2")
"> 100 µM"
>>> assay_result("Cc1nc(N/N=C/c2ccccc2Cl)[nH]c(=O)c1CCO")
"69.9 µM"
>>> assay_result("O=CNc1ncn[nH]1")
"> 100 µM"
>>> assay_result("CC(=O)Oc1ccccc1/C=C/C(=O)/C=C/c1ccccc1OC(C)=O")
"1.65 µM"
>>> assay_result("COc1ccc(C(SCC(N)C(=O)O)(c2ccccc2)c2ccccc2)cc1 (stereo not given)")
"> 100 µM"
>>> assay_result("COC(=O)C(=O)C(C(=O)C(=O)Nc1nc2ccc(C)cc2s1)c1nc2ccc([N+](=O)[O-])cc2[nH]c1=O (stereo not given)")
"> 100 µM"
>>> assay_result("CCOC(=O)[C@@]12C[C@](/C=C/OC)(O[Si](C)(C)C)[C@@]13c1cc(OC)c(OC)cc1CCN3C(=O)C2O (stereo not given in full)")
"> 100 µM"
>>> assay_result("O=C(CSc1nc2[nH]ncc2c(=O)[nH]1)c1ccc(Cl)cc1")
"> 100 µM"
>>> assay_result("Nc1nc2c(s1)CCc1c-2c(Br)n(Cc2ccccc2)c1Br")
"6.38 µM"
>>> assay_result("Cc1ccc(Nc2c(C#N)[n+]([O-])c3cc(Cl)ccc3[n+]2[O-])cc1")
"> 100 µM"
